test system: FXR:RXRa (NR concentration 270 nM, RXRa partner concentration 90 nM); assay: PBM binding z-score (relative to random genomic background probes); higher = stronger binding; sequences stand for … in GC…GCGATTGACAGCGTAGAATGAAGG
Collected PBM binding z-score values appear next to each entry.
Please give the numeric answer without any surrounding text.

Answered cases to consult:
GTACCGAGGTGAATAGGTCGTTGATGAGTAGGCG : 1.03
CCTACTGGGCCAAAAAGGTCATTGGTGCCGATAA : 3.94
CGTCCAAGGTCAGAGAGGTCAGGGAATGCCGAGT : 6.63
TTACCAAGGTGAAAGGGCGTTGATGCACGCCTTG : 1.12
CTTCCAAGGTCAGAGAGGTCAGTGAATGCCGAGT : 5.96
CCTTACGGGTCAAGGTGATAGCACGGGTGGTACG : 5.64
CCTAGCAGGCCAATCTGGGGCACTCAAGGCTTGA : -0.393
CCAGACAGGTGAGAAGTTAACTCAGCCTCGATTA : -0.198

Exercise: Identify measured PBM binding z-score corresponding to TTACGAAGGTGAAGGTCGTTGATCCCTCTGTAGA
Solution: 2.35

Exercise: Identify measured PBM binding z-score corresponding to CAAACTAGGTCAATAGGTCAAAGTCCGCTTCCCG
Solution: 5.97

Exercise: Quickly give me recorded PBM binding z-score for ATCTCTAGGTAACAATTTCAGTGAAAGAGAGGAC
Solution: 0.775

* * *

Listing of recorded PBM binding z-score by entry.
test system: PPARg:RXRa 30nM:10nM, anti-RXR (NR concentration 30 nM, RXRa partner concentration 10 nM); experiment: PBM binding z-score (relative to random genomic background probes); higher = stronger binding; sequences stand for … in GC…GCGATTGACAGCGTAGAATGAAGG
Please reply with the value in numeric form only.

Here are 6 sequences together with their reported answers.
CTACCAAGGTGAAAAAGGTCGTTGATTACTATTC : 0.297
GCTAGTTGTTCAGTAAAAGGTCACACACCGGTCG : 1.49
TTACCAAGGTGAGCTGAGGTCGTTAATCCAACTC : 0.0433
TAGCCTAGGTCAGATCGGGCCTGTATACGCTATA : -0.139
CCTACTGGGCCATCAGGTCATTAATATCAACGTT : 0.96
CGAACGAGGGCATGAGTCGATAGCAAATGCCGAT : 0.37

Exercise: Please supply the value of reported PBM binding z-score for the item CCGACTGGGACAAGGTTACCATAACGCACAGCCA
Solution: 0.494

Exercise: Tell us which PBM binding z-score value is on record for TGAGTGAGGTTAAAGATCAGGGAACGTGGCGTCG
Solution: 2.61

Exercise: Given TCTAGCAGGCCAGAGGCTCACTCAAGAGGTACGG , respond with its PBM binding z-score.
Solution: 1.38

* * *

Recorded PBM binding z-score for the following sequences
system: RARg homodimer (NR concentration 270 nM); assay: PBM binding z-score (relative to random genomic background probes); higher = stronger binding; sequences stand for … in GC…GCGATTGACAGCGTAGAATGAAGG
// no unit, no text: just the number

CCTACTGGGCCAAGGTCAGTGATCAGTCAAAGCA : 2.48
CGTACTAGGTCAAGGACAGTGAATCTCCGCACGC : 4.64
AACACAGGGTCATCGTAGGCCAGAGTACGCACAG : 5.13
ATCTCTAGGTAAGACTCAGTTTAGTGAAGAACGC : 0.235
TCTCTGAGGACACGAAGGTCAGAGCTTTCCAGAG : 3.9
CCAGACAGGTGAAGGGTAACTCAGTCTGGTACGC : 0.626

Exercise: // fetch PBM binding z-score for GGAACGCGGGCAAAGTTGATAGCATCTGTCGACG ; system: RARg homodimer (NR concentration 270 nM)
Solution: 0.259

Exercise: Provide PBM binding z-score, system RARg homodimer (NR concentration 270 nM), entry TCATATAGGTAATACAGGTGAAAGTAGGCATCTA
Solution: 0.742

Exercise: Give the observed PBM binding z-score of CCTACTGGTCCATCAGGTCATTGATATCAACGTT for RARg homodimer (NR concentration 270 nM).
Solution: 1.47

Exercise: Given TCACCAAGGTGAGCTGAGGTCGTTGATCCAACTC , report its PBM binding z-score on RARg homodimer (NR concentration 270 nM).
Solution: 0.829

* * *

system: LXRb homodimer (NR concentration 270 nM); test: PBM binding z-score (relative to random genomic background probes); higher = stronger binding; sequences stand for … in GC…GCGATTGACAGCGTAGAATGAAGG
Would you mind labelling by PBM binding z-score? At or over 0.07 is Satisfied, under is Not satisfied.

Known results for sequences:
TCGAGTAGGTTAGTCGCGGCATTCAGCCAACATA : Not satisfied
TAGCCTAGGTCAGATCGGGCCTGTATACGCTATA : Not satisfied
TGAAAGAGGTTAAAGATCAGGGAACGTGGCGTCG : Satisfied
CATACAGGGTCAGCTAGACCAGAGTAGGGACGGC : Satisfied

Now for a further sequence.
Exercise: Decide: PBM binding z-score of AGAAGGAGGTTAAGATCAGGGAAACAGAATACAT >= 0.07?
Solution: Satisfied

* * *

# PBM binding z-score values compiled below
tested on: PPARg:RXRa 90nM:30nM, anti-RXR (NR concentration 90 nM, RXRa partner concentration 30 nM); assay: PBM binding z-score (relative to random genomic background probes); higher = stronger binding; sequences stand for … in GC…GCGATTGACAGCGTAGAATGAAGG

# example entries with known answers
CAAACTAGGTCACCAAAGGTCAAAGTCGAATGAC : 8.55
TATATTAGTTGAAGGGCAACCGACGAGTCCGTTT : 1.22
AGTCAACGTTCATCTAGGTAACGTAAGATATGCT : 0.234
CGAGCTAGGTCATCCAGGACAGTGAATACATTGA : 1.35

Exercise: Provide one value: measured PBM binding z-score of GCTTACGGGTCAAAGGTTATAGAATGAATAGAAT
Solution: 10.7

Exercise: Specify PBM binding z-score for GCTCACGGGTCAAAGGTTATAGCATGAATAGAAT and stop.
Solution: 8.29

Exercise: Consider the sequence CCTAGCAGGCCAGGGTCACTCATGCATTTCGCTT and give its recorded PBM binding z-score.
Solution: 0.442

Exercise: Retrieve PBM binding z-score measured for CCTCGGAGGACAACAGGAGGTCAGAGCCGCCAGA and print it.
Solution: -0.258

Exercise: Tell me its PBM binding z-score given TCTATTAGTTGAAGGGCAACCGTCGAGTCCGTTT as the entry.
Solution: 2.84

Exercise: Retrieve PBM binding z-score measured for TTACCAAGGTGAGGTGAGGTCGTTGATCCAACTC and print it.
Solution: 0.705

Exercise: Provide PBM binding z-score value for the following sequence: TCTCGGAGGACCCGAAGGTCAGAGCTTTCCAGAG
Solution: 1.63

* * *

test system: PPARg:RXRa IVT, anti-PPARg (NR concentration 270 nM, RXRa partner concentration 90 nM); assay: PBM binding z-score (relative to random genomic background probes); higher = stronger binding; sequences stand for … in GC…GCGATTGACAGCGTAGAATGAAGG
Each entry belongs to exactly one class, chosen by where its PBM binding z-score falls: low group (below 0.5), middle group (0.5 to below 3), high group (3 or more)

Previously resolved entries follow.
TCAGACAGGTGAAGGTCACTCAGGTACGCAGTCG : middle group
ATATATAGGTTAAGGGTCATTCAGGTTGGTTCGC : high group

Exercise: Class for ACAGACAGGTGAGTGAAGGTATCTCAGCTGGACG ?
Solution: middle group

Exercise: Input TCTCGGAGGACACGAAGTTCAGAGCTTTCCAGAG ; output its category
Solution: low group

Exercise: Please indicate the class for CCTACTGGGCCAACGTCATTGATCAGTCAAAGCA based on its PBM binding z-score.
Solution: high group

Exercise: Hi, small favor: classify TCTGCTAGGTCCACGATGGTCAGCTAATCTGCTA by its PBM binding z-score when you get a moment.
Solution: low group

Exercise: Hi there! Could you help me figure out the category for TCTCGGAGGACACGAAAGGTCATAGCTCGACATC please?
Solution: middle group

Exercise: Categorize the following entry: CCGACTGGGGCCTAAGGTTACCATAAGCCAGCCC
Solution: low group

Exercise: Class for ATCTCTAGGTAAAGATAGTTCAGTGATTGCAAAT ?
Solution: middle group

Exercise: Class (by measured PBM binding z-score) for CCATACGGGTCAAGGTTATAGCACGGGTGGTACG
Solution: high group

Exercise: Please let me know in which category the item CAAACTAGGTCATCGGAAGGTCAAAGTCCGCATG belongs.
Solution: high group
